Give TGI for every item shown.
tested on: MALME-3M melanoma; assay: NCI tumour cell line growth inhibition, 48 h

Examples from the recorded data:
compound	outcome.measure	reading
O=CC1OC(=O)c2cc(O)c(O)c(O)c2-c2c(cc(O)c(O)c2O)C(=O)OC1C1OC(=O)c2cc(O)c(O)c(O)c2-c2c(O)c(O)c3oc(=O)c4c(c(O)c(O)c5oc(=O)c2c3c54)-c2c(cc(O)c(O)c2O)C(=O)OCC1O (stereo not drawn)	TGI	> 100 µM
CC(=O)N[C@@H](Cc1ccc(OP(=O)(O)O)cc1)C(=O)N[C@H]1CCC(=O)N2CCC[C@@H](C(=O)NC3CCc4ccccc43)N2C1=O (stereo partly drawn)	TGI	> 25 µM

Here is another compound to look at.
[ask] Quick check: TGI of CC1(C)N([O-])[N+](=O)C1(C)O (stereo not drawn) ?
[reply] > 100 µM
